Molecular target: T1, GLP-1 receptor (endogenous, RINm5F cell membranes; rat thyroid carcinoma 6-23 clone 6 cells) (rat, UniProt P32301 22-463)
T1 construct: whole, on cells
T1 sequence (looked up): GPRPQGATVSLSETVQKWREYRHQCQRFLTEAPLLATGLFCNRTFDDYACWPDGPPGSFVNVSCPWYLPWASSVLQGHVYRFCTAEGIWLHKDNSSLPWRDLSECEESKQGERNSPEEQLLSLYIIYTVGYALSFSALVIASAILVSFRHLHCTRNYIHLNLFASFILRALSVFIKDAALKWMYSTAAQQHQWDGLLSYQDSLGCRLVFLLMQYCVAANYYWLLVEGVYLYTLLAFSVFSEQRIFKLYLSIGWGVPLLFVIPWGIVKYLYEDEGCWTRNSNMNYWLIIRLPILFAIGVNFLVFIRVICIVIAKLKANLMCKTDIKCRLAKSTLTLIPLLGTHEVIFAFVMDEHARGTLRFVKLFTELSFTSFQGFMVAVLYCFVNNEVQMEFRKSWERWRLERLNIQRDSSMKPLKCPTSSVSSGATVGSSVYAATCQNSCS
Experiment: displacement of [125I]GLP-1 from RINm5F cell membranes (GLP RBA)
Binarize IC50 at 2 nM; below is Condition met, at or above is Condition not met.

Does the reported IC50 of HXEGTYTNDVTEYLEEKAAKEFIEWLIKGKPKKIRYS (Aib (2-Aminoisobutyric acid) at position 2, also called nmGLP-1 analog) [SEQ ID NO 27] stay below 2 nM?
Condition met

IC50 under 2 nM? Item: HAEGTYTNDVTEYLEEKAAKEFIEWLIN (also called nmGLP-1 analog) [SEQ ID NO 24]
Condition met

hey, is IC50 for YADAPYISDVYSYLQDQVAKKWLKSGQD (also called nmGLP-1 peptide; naturally occurring nmGLP-1) [SEQ ID NO 51] lower than 2 nM or not?
Condition not met

Please state whether IC50 is below 2 nM for HXEGTFTSDVTQQLDEKAAKEFIDWLINGGPSKEIIS (dAla at position 2 (a = dAla), also called nmGLP-1 analog) [SEQ ID NO 10]
Condition met

Please state whether IC50 is below 2 nM for HAEGTYTNDVTEYLEEKAAKEFIEWLIKGKPKKIRY (also called nmGLP-1 analog) [SEQ ID NO 34]
Condition not met

Here's an entry: HAEGTYTNDVTELEEKAAKEFIEWLIKGKPKKIRYS (also called nmGLP-1 analog) [SEQ ID NO 33] . Is its IC50 below 2 nM?
Condition not met

Criterion: IC50 strictly below 2 nM. Is it met by HAEGTYTNDVTEYLEEKAAKEFIEWLINGGPSKEIIS (also called nmGLP-1 analog) [SEQ ID NO 21] ?
Condition not met
